Each recorded value in this set is attributed to the supplement of paper PMC10567573.

B1: VTI1B (parent)
chain: ANETLAEMEEELRYAPLSFRNPMM

Variants of: B1
measurementDescription: protein stability index of a GFP-peptide fusion (GPS, HEK-293T) (PSI 1-6); higher = more stable;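 also: lentivirally expressed fusions sorted by FACS into six bins by GFP to DsRed ratio, PSI derived from sequencing read proportions per bin multiplied by bin number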
runConditions: c terminus: a fixed tail appended
Could you label it Fulfilled if measured protein stability index is 3 or higher, and Not fulfilled otherwise?

mutant	classification
R20D	Not fulfilled
A1Q	Not fulfilled
L5G	Not fulfilled
M24E	Fulfilled
R20Y	Not fulfilled
E9P	Fulfilled
P22A	Fulfilled
M24T	Fulfilled
P22Y	Fulfilled
R20M	Not fulfilled
L5K	Not fulfilled
S18P	Fulfilled
E9Y	Not fulfilled
L5C	Not fulfilled
S18V	Fulfilled
M23H	Fulfilled
A6P	Not fulfilled
F19Q	Fulfilled
L17H	Fulfilled
E7M	Not fulfilled
E11W	Not fulfilled
A15L	Not fulfilled
L17G	Fulfilled
L12Q	Fulfilled
E9C	Not fulfilled
A1R	Not fulfilled
F19N	Fulfilled
T4M	Not fulfilled
E11Y	Not fulfilled
R13N	Not fulfilled
L5D	Fulfilled
Y14I	Not fulfilled
E7W	Not fulfilled
T4C	Not fulfilled
N21C	Not fulfilled
L12W	Not fulfilled
E9R	Not fulfilled
T4S	Not fulfilled
